method_summary: chemical genetic growth profiling, strain panel (AID 1159580);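 also: tested at 20 µM; growth read once vehicle control cultures reached saturation at 30 °C; 1 = growth at the plate median or of vehicle wells; lower values mean less growth of the strain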
conditions: S. cerevisiae deletion strains, growth OD, locus YDR226W, strain ADK1, active compounds read low
The whole screen tested about 5,500 compounds, of which about 2,000 (36%) were called active. Inconclusive results (about 18%) are left out. Some of the results follow.
Measured normalized growth values are reported for all entries that follow.

# compound, normalized growth
rows = [
    ("Cc1nn(Cc2cccc(C(=O)O/N=C(/N)c3ccc(Cl)cc3)c2)c(C)c1Br", 0.978),
    ("N#C/C(=N/Nc1ccc(C(F)(F)F)cc1)C(=O)C1CC1", 0.97),
    ("FC(F)(F)c1ccc(NC(=S)Nc2ccc(C(F)(F)F)cc2Cl)c(Cl)c1", 0.936),
    ("Cc1c(Cl)cccc1N=C1SCC(=O)N1Cc1ccco1", 0.98),
    ("CN(NC(=S)Nc1cc(Cl)ccc1Cl)c1ccc(C(F)(F)F)cc1[N+](=O)[O-]", 0.984),
    ("N#CC(C#N)=NNc1ccc(-n2ccc(C(F)(F)F)n2)cc1", 0.917),
    ("Oc1ccc(-n2nnnc2SCc2ccc(OC(F)(F)F)cc2)cc1", 0.98),
    ("N#CC(C#N)=NNc1ccc(C(F)(F)F)cc1", 0.178),
    ("N#CC(C#N)=NNc1cc(C(F)(F)F)ccc1OCC(F)(F)F", 0.891),
    ("Cc1oc(-c2ccc(Cl)cc2)cc1C(=O)N1CCN(c2ccc(C(F)(F)F)cn2)CC1", 0.972),
    ("CCOC(=O)C1C(c2ccc(Br)cc2)C(C(=O)OCC)C(O)(C(F)(F)F)NC1(O)C(F)(F)F (configuration not stated)", 0.998),
    ("N/C(=N/OC(=O)c1ccccc1Cl)c1cccc(CS(=O)(=O)c2ccc(Cl)cc2)c1", 0.981),
]

Taken from PubChem BioAssay AID1159580.
